target: T1, human PCSK9 (proprotein convertase subtilisin kexin type 9) (human, UniProt Q8NBP7 31-692); experiment: PCSK9:EGFA FRET, competitor EGFA peptide
T1 construct: immobilized directly (ProteOn), biotinylated (Octet) or in solution, according to the assay; also called hPCSK9; PCSK9-AF647 (labelled form)
Measure: EC50 (nM)
Reply with just the number (in nM).

IN: Item 2382H10 (designed binder) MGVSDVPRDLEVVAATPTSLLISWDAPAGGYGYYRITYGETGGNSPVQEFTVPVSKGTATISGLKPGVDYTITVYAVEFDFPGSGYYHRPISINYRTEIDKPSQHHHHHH has what recorded EC50?
OUT: 2.6

IN: Value lookup for EC50; key = 2451D05 (designed binder) MGVSDVPRDLEVVAATPTSLLISWDAPAGAYGYYRITYGETGGNSPVQEFTVPVSKGTATISGLKPGVDYTITVYAVEFDFPGSGYYHRPISINYRTEIDKPSQHHHHHH
OUT: 2.8
